Source of measurements: patent US20200325187A1

Biological target: T1, hVEGF-A (8-109) (human, UniProt P15692 214-315)
T1 sequence (looked up): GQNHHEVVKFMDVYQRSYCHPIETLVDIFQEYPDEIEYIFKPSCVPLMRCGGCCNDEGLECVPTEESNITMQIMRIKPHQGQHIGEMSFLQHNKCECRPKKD
Test: phage competition ELISA (clone on phage; the concentration varied on the axis is that of hVEGF (8-109))

{"BINDER": "GCDVMQPYWGCEMDFDCLAGCVCHWYNSCGGI (designed binder) [9.63.44-7]", "IC50 (read off the curve)": "~0.03 nM"}
{"BINDER": "GCDVMQPYWGCEMDFDCLAGCICHWYNSCGFS (designed binder) [9.63.44-1]", "IC50 (read off the curve)": "~0.04 nM"}
{"BINDER": "GCDVMQPYWGCEMDFDCLAGCICHWYNSCGYA (designed binder) [9.63.44-3]", "IC50 (read off the curve)": "~0.03 nM"}
{"BINDER": "GCDVMQPYWGCEMDFDCLAGCICHWYNSCGSR (designed binder) [9.63.44-4]", "IC50 (read off the curve)": "~0.04 nM"}
{"BINDER": "GCDVMQPYWGCEMDFDCLAGCICHWYNSCGQV (designed binder) [9.63.44-2]", "IC50 (read off the curve)": "~0.03 nM"}
